test system: S. cerevisiae strain ADΔΔ (native ScCYP51); assay: MIC80 susceptibility, host strain ADΔΔ; assay type: cell-based; settings: Saccharomyces cerevisiae, Table 2, SD pH 6.8, 48 h, 30 °C
metric: MIC80 (µM)

* CC[C@@H]([C@H](C)O)n1ncn(-c2ccc(N3CCN(c4ccc(OC[C@@H]5CO[C@@](Cn6cncn6)(c6ccc(F)cc6F)C5)cc4)CC3)cc2)c1=O [PCZ, posaconazole] | 0.1

====

target: AfCYP51B-6×His (Aspergillus fumigatus); assay: Type II binding of azole drugs (difference spectra); conditions: type II binding, 1 μM enzyme, Hill equation
metric: Kd (nM)

• O[C@@](Cn1cnnn1)(c1ccc(F)cc1F)C(F)(F)c1ccc(-c2ccc(OCC(F)(F)F)cc2)cn1 [VT-1161, oteseconazole] = 3230
• C[C@@H](c1ncncc1F)[C@](O)(Cn1cncn1)c1ccc(F)cc1F [VCZ, voriconazole] = 800
• OC(Cn1cncn1)(Cn1cncn1)c1ccc(F)cc1F [FLC, fluconazole] = 1430
• CC1COC(Cn2cncn2)(c2ccc(Oc3ccc(Cl)cc3)cc2Cl)O1 (stereo not shown) [DCZ, difenoconazole] = 1760

====

Biological target: AfCYP51B-6×His (Aspergillus fumigatus, UniProt E9QY26)
Sequence (E9QY26 1-524): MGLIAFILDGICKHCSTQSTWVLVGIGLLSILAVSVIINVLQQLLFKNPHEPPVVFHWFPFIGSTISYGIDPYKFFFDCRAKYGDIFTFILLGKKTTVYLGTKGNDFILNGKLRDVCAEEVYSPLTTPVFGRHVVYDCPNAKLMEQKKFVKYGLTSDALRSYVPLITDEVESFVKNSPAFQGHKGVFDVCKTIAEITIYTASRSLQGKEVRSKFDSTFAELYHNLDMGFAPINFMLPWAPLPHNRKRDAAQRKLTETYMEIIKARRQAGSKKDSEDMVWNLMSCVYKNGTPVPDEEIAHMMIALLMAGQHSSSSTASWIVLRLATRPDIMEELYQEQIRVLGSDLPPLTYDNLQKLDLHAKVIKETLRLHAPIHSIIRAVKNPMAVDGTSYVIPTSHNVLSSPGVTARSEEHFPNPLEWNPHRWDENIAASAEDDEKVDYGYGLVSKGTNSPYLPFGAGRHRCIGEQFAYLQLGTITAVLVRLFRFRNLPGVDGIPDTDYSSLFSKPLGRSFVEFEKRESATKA
Test: Type I binding of substrates (difference spectra)
Settings: AfCYP51B-6×His 5 μM, type I binding, Michaelis–Menten equation; read-out: Ks
metric: Kd (µM)

- CC(C)=CCC[C@@H](C)[C@H]1CC[C@@]2(C)C3=C(CC[C@]12C)[C@@]1(C)CC[C@H](O)C(C)(C)[C@@H]1CC3 [Lanosterol, lanosterol]: 477

====

tested on: S. cerevisiae strain BRE (AfCyp51B-6×His, AfCprA2, AfErg6-FLAG); assay: MIC80 susceptibility, strain BRE; assay type: cell-based, Saccharomyces cerevisiae; settings: Saccharomyces cerevisiae; Table 3; strain BRE; ± SD; read-out: MIC80
metric: MIC80 (µM)

- CC[C@@H]([C@H](C)O)n1ncn(-c2ccc(N3CCN(c4ccc(OC[C@@H]5CO[C@@](Cn6cncn6)(c6ccc(F)cc6F)C5)cc4)CC3)cc2)c1=O: 0.06
- C[C@@H](c1nc(-c2ccc(C#N)cc2)cs1)[C@](O)(Cn1cncn1)c1ccc(F)cc1F: 0.0038
- C[C@@H](c1nc(-c2ccc(C#N)cc2)cs1)[C@](O)(Cn1cncn1)c1cc(F)ccc1F: 0.0109
- OC(Cn1cncn1)(Cn1cncn1)c1ccc(F)cc1F: 3.8
